Measured values drawn from the supplement of paper PMC7125110 for this set.

B1: glmS ribozyme (parent)
chain: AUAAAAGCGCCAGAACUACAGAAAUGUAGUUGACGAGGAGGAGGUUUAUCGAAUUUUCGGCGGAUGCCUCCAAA

variants of: B1; test: self-cleavage kobs at 640 uM GlcN6P; higher = faster cleavage; RNA array; details: with glucosamine-6-phosphate
Variants at the floor of the assay were thinned out.
The following variants are listed with their measured self-cleavage kobs at 640 uM GlcN6P values.
Attribute Measured: self-cleavage kobs at 640 uM GlcN6P

Variant Notation: G7U C50A
Experimental Value: < 1e-05 s⁻¹

Variant Notation: A15G G59C
Experimental Value: < 1e-05 s⁻¹

Variant Notation: A18C G35U U57A
Experimental Value: < 1e-05 s⁻¹

Variant Notation: G13C G59C
Experimental Value: < 1e-05 s⁻¹

Variant Notation: G13A U46C C67A
Experimental Value: < 1e-05 s⁻¹

Variant Notation: A53G G60A C61G
Experimental Value: < 1e-05 s⁻¹

Variant Notation: A39C G63U
Experimental Value: < 1e-05 s⁻¹

Variant Notation: U31G G43A C61A C68A
Experimental Value: < 1e-05 s⁻¹

Variant Notation: A6G U57A
Experimental Value: < 1e-05 s⁻¹

Variant Notation: A15C A42G
Experimental Value: 0.00216 s⁻¹

Variant Notation: G7U C16G G59A
Experimental Value: < 1e-05 s⁻¹

Variant Notation: A36U A52U
Experimental Value: < 1e-05 s⁻¹

Variant Notation: A15C U31C A33G G38A
Experimental Value: < 1e-05 s⁻¹

Variant Notation: G35C G40A U46G G66A
Experimental Value: < 1e-05 s⁻¹

Variant Notation: G35U G60U
Experimental Value: < 1e-05 s⁻¹

Variant Notation: A6U U31G C67G
Experimental Value: < 1e-05 s⁻¹

Variant Notation: C11A A39U U45C G51C C61U
Experimental Value: < 1e-05 s⁻¹

Variant Notation: C11U U30C
Experimental Value: 9.85e-05 s⁻¹

Variant Notation: A39G C58U G63U
Experimental Value: < 1e-05 s⁻¹

Variant Notation: U45C C50A U56C
Experimental Value: < 1e-05 s⁻¹

Variant Notation: A36U C50G U69G
Experimental Value: 0.00036 s⁻¹

Variant Notation: C11G A39U G60A
Experimental Value: < 1e-05 s⁻¹

Variant Notation: A14U G40A
Experimental Value: 0.000643 s⁻¹

Variant Notation: A15G U46G G66A C68U
Experimental Value: 0.000307 s⁻¹

Variant Notation: G40A C70A
Experimental Value: 0.000163 s⁻¹

Variant Notation: C34A G35U G37A U49A U56C
Experimental Value: < 1e-05 s⁻¹

Variant Notation: A15C C50G G62U
Experimental Value: 6.39e-05 s⁻¹

Variant Notation: A15U G40C A52U
Experimental Value: < 1e-05 s⁻¹

Variant Notation: U57A C61U
Experimental Value: < 1e-05 s⁻¹

Variant Notation: C34U U45C U65A
Experimental Value: < 1e-05 s⁻¹

Variant Notation: C10U G13C A15U C16U C50G
Experimental Value: 0.000145 s⁻¹

Variant Notation: U31A C58U U69G
Experimental Value: 0.000109 s⁻¹

Variant Notation: C58U
Experimental Value: 1.66e-05 s⁻¹

Variant Notation: G35A G40U G62U
Experimental Value: < 1e-05 s⁻¹

Variant Notation: A39G A64G
Experimental Value: 0.0131 s⁻¹

Variant Notation: A14G U30G A64G
Experimental Value: 0.00462 s⁻¹
